Tested on: NCI-H23 lung
Test: NCI-60 one-dose screen, 48 h
Conditions: 10 µM unless noted
About 83,000 compounds went through this panel and 20% of them were active in at least one assay; those are over-represented in the sample as a whole. Active and inactive are the calls of the source. How the source made its calls: active means growth percent below 10; inactive means the rest.
Outcomes you can answer with include only these: T = active, F = inactive

Solved cases below.
INSERT INTO assay_data (compound, test_system, category) VALUES
  ('CC1(C)CC(=O)C2=C(C1)N(c1ccc(OC(F)(F)F)cc1)C(N)=C(C#N)C2c1ccc(Br)cc1F (stereo not given)', 'NCI-H23 lung', 'F'),
  ('Cc1cccc(/C=C2\CN(C(=O)OC(C)(C)C)C/C(=C\c3cccc(C)c3)C2=O)c1', 'NCI-H23 lung', 'F'),
  ('Cn1c(I)c(C#CCO[Si](C)(C)C(C)(C)C)c(=O)[nH]c1=O', 'NCI-H23 lung', 'F'),
  ('O=C(CSC(=S)n1cnnc1)NC(=O)c1ccccc1', 'NCI-H23 lung', 'F'),
  ('COc1ccc(-c2nc3c(ncc4ccc(=O)[nH]c43)s2)cc1', 'NCI-H23 lung', 'F');

Recorded call for `c1csc(-c2ccc(CNc3c4ccccc4nc4ccccc34)cc2)c1` ? F

Field: outcome | Entry: `C=CCOC(=O)Nc1cccn([C@H](Cc2ccccc2)C(=O)NCCC(C)C)c1=O` F
